Biological target: Neutrophil elastase (Homo sapiens, UniProt P08246)
Sequence (P08246 whole entry): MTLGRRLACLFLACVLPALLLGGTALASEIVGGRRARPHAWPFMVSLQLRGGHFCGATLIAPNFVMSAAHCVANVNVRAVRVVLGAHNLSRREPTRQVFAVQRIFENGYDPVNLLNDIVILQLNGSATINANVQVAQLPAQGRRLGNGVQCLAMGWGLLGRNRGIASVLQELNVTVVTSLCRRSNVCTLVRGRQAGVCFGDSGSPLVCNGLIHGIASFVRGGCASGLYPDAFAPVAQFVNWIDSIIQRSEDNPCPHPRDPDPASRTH
Experiment: Inhibition constant of compound measured toward human leukocyte elastase (HLE) at pH 8 and 25 degree C.
Numbered stars: 1 amine (or outer) side, 2 acyl side, 3 side chain; on linkers, the order of the positions; unused ones are H or OH. Square brackets hold non-standard residues; d marks the D form. Peptide text beside a SMILES is read from it. * marks the point of attachment. X1 = O=C([C@H]1CCCN1N[*:1])[*:2]; Cbz = O=C(OCc1ccccc1)*; NHiPr = CC(C)N*
RESULT_TYPE: Ki (µM)

(1) CC(C)NC(=O)[C@H](C)NC(=O)[C@H](C)NC(=O)[C@@H](NNC(=O)[C@H]1CCCN1C(=O)[C@H](C)NC(=O)[C@H](C)NC(=O)OCc1ccccc1)C(C)C
(2) CC(C)NC(=O)[C@H](C)NC(=O)[C@H](C)NC(=O)[C@@H](NC(=O)[C@H]1CCCN1NC(=O)[C@H](C)NC(=O)[C@H](C)NC(=O)OCc1ccccc1)C(C)C (Cbz-AA[X1]VAA-NHiPr)
Input: Given 1 and given 2 , which shows the smaller recorded Ki? Mark your selection by writing its label.
Output: 2
(2: 65 µM, 1: 595 µM)
